# Test system: CAKI-1 renal
# experimental_protocol: NCI tumour cell line growth inhibition, 48 h
measurement_type: TGI

{"compound": "Nc1nc2cc(CC[C@H]3C[C@@H](n4ccc5c(N)ncnc54)[C@H](O)[C@@H]3O)ccc2cc1Br", "measurement_type": "TGI", "result": "21.9 µM"}
{"compound": "CC(C(=O)c1ccncc1)c1ccccn1 (centres undefined)", "measurement_type": "TGI", "result": "> 100 µM"}
{"compound": "CCCCc1ccc(Nc2nc(Cl)c3c(ncn3C3CC(Oc4ccc(C)cc4)C(COc4ccc(C)cc4)O3)n2)cc1 (centres undefined)", "measurement_type": "TGI", "result": "> 100 µM"}

The compound listed as Cc1ccc(S(=O)(=O)OC(COC(=O)c2ccccc2)C(OS(=O)(=O)c2ccc(C)cc2)C(OS(=O)(=O)c2ccc(C)cc2)C(COC(=O)c2ccccc2)OS(=O)(=O)c2ccc(C)cc2)cc1 (centres undefined) has a reported TGI of > 100 µM

====

# Tested on: NCI-H460 lung
Permitted responses: True = active, False = inactive

{"molecule": "CC(C)C(=O)c1c(C(F)(F)F)n([O-])c2cc(F)c(F)cc2[n+]1=O", "system_name": "NCI-H460 lung", "category": "False"}
{"molecule": "C=C1C(=O)O[C@H]2[C@H]1CC/C(Cn1cc(-c3ccc(F)cc3)nn1)=C\\CC[C@@]1(C)O[C@@H]21", "system_name": "NCI-H460 lung", "category": "False"}

Hi team, can someone confirm the assay call for C[C@]12CC[C@H]3[C@@H](CC4SC(N)=NC45C/C(=N/NC(N)=O)CC[C@]35C)[C@@H]1CCC2=O (stereo not given in full) ?
False

Called result for O=CN1N=C(c2cccc(Nc3ccnc4cc(Cl)ccc34)c2)CC1c1ccccc1 (stereo not given)
True

Which result was noted for this molecule in the test: CC(C)c1cccc(O)c(=O)c1
False

What classification did COc1ccc(NC(=O)c2sc3nc(C)c(C(=O)/C=C/c4cccc(OC)c4)cc3c2N)cc1 end up with in this test?
False

====

# Tested on: SF-268 CNS
# experimental_protocol: NCI tumour cell line growth inhibition, 48 h; in the data active means GI50 below about 0.43 µM; inactive means the rest
Field 'call' accepts active, inactive

{"smiles_notation": "C[C@H]1COCCN1c1cc(C2(S(=O)(=O)C3CC3)CC2)nc(-c2ccc(NC(=S)NCCO)cc2)n1", "category": "active"}
{"smiles_notation": "COc1cc(C(=O)O[C@H](C(=O)NCCN(C)CCNC(=O)[C@@H](OC(=O)c2cc(OC)cc3c(C)cccc23)[C@]2(C)CO2)[C@]2(C)CO2)c2cccc(C)c2c1", "category": "active"}
{"smiles_notation": "CCCCCC[C@@H](C)NC(=O)c1ccc(Nc2nc3ccccc3c3occc23)cc1", "category": "inactive"}

Okay, now this compound:
Test call for this compound, please: O=C(/C=C1\C(=O)N(Cc2ccccc2)c2ccccc21)c1ccc(OCCN2CCCCC2)cc1
inactive

====

# GI50 per record follows
# Test system: A498 renal
# experimental_protocol: NCI tumour cell line growth inhibition, 48 h

{"smiles_notation": "Clc1ccc2nc(CI)c(CI)nc2c1", "GI50": "29.7 µM"}

Form field GI50, entry COC1=CC(c2ccc[nH]2)=N/C1=C\c1[nH]c(C)c(CC(=O)OCc2ccccc2)c1C : 0.433 µM

Looking up COc1cc(C(=O)O[C@H](C(=O)NCCN(C)CCNC(=O)[C@@H](OC(=O)c2cc(OC)cc3c(C)cccc23)[C@]2(C)CO2)[C@]2(C)CO2)c2cccc(C)c2c1 , I see its GI50 listed as 0.888 µM

Entry CCCCCCCCCCCCCCCCOP(=O)([O-])OCC[N+](C)(C)C — recorded GI50 = 1.13 µM

Record Cc1ccc2c(c1)C(=O)c1c-2c(OCCCN(C)C)nc2ccccc12 , field GI50: 4.02 µM

Lookup result for Cc1cc(OCCOCCC(F)(F)P(=O)(O)O)ccc1CCc1cnc2c(N)nc3cc(CCC(=O)O)ccc3c2c1 ; measured GI50: 26.2 µM

====

# System: CCRF-CEM leukemia
# experimental_protocol: NCI tumour cell line growth inhibition, 48 h
// reported TGI for each item listed

{"molecule": "CCCCCCCCP(=O)(O)OP(=O)(O)OCC1OC(n2ccc(N)nc2=O)C(O)C1O (stereo not given)", "TGI": "> 100 µM"}

Item: CN1Cc2cc(O)c(O)cc2C(O)C1 (stereo not given) | TGI: > 100 µM

The reported value for Cc1cc(S(=O)(=O)Nc2nncn2-c2ccc(Cl)cc2)c(S)cc1Cl in terms of TGI is > 10 µM

Looking up Cc1ccc(NC(=O)/C(Cc2cc(=O)oc3cc(O)ccc23)=N\NC(C)(C)C)cc1C , I found its TGI recorded as > 100 µM

Lab note: C[C@H]1CNC(=O)c2cnn3ccc(nc23)N[C@H](C)c2cc(F)ccc2O1 gave TGI of > 67.2 µM

====

# Test system: SNB-19 CNS
# experimental_protocol: NCI tumour cell line growth inhibition, 48 h
measurement_type: TGI (µM)
The reply should be a number in µM, with the unit left off.

{"smiles_notation": "O=C(c1ccccc1)c1c(C(F)(F)F)n([O-])c2cc(C(F)(F)F)ccc2[n+]1=O", "measurement_type": "TGI", "quantitative_readout": 3.46}
{"smiles_notation": "COc1cc(C(=O)O[C@H](C(=O)NCCN(C)CCNC(=O)[C@@H](OC(=O)c2cc(OC)cc3c(C)cccc23)[C@]2(C)CO2)[C@]2(C)CO2)c2cccc(C)c2c1", "measurement_type": "TGI", "quantitative_readout": 1.18}

response.value for COc1cc(Cc2cnc(N)nc2N)cc(OC)c1OCCCNc1ccc([N+](=O)[O-])cc1 (field: TGI) = 27

====

# Test system: SK-OV-3 ovarian
# experimental_protocol: NCI tumour cell line growth inhibition, 48 h
measurement_type: GI50

Worked examples follow.
{"smiles_notation": "C=C1SC(=Nc2ccccc2Cl)N(C(=O)c2sc3ccccc3c2Cl)C12CCCCC2", "GI50": "13.9 µM"}
{"smiles_notation": "Cn1c(-c2ccccc2)c(/C=C/C2=[N+](C)c3ccccc3C2(C)C)c2ccccc21", "GI50": "2.38 µM"}
{"smiles_notation": "Nc1nc2cc(CC[C@H]3C[C@@H](n4ccc5c(N)ncnc54)[C@H](O)[C@@H]3O)ccc2cc1Br", "GI50": "13.4 µM"}
{"smiles_notation": "CCCCCCCCCCCCCC[n+]1ccc(C(N)=O)cc1", "GI50": "2.33 µM"}
{"smiles_notation": "O=c1oc2cc(OC/C(=N/O)c3ccc(F)cc3)ccc2c2ccccc12", "GI50": "24 µM"}

Notebook: Cn1nc(C(F)(F)F)c(-c2cc(C(F)(F)F)cc(C(F)(F)F)c2)c1-c1ccc(OCc2ccc(Cl)cc2)cc1O , GI50 read as 2.82 µM

====

# Test system: MDA-N
# experimental_protocol: NCI tumour cell line growth inhibition, 48 h
measurement_type: TGI (µM)
Please give a number only; it is taken to be in µM.

{"compound": "COc1ccc2c(c1OC)C(C(Cl)(Cl)Cl)N1CCc3cc4c(cc3C1=C2)OCO4 (stereo not drawn)", "TGI (µM)": 41}
{"compound": "Cc1[nH]c2ccccc2c1/C=N/NC(=O)c1cccc(I)c1", "TGI (µM)": 52.4}
{"compound": "Cc1nc2c(cc1OCc1ccccc1)C(=O)C1=C(C2=O)C2OC(=O)CC2OC1(C)C (stereo not drawn)", "TGI (µM)": 1.75}

The compound CC(=O)O[C@H]1C(=O)[C@@]2(C)[C@H]([C@H](OC(=O)c3ccccc3)[C@]3(O)C[C@H](OC(=O)[C@H](O)[C@@H](NC(=O)c4ccccc4)c4cccc(N(C)C)c4)C(C)=C1C3(C)C)[C@]1(OC(C)=O)CO[C@@H]1C[C@@H]2O , tested on MDA-N, showed TGI of 0.0238

====

# Test system: K-562 leukemia
# experimental_protocol: NCI tumour cell line growth inhibition, 48 h; in the data active = GI50 below about 0.43 µM; inactive = the rest
Field 'call' accepts 1 = active, 0 = inactive

Sample answers from the record:
{"molecule": "C[C@]12CC[C@H]3[C@@H](CC4SC(N)=NC45C/C(=N/NC(N)=O)CC[C@]35C)[C@@H]1CCC2=O (stereo not given in full)", "category": 0}
{"molecule": "C=C1SC(=Nc2ccccc2Cl)N(C(=O)c2sc3ccccc3c2Cl)C12CCCCC2", "category": 0}
{"molecule": "ClCc1ccccc1Cn1cnc2c(Cl)ncnc21", "category": 0}
{"molecule": "C=C1C(=O)O[C@H]2[C@H]1CC/C(COC(=O)CCCc1c[nH]c3ccccc13)=C\\CC[C@@]1(C)O[C@@H]21", "category": 0}
{"molecule": "COc1cc(C(=O)O[C@H](C(=O)NCCN(C)CCNC(=O)[C@@H](OC(=O)c2cc(OC)cc3c(C)cccc23)[C@]2(C)CO2)[C@]2(C)CO2)c2cccc(C)c2c1", "category": 1}

Check the results log: what was the call for Nc1nc2cc(CC[C@H]3C[C@@H](n4ccc5c(N)ncnc54)[C@H](O)[C@@H]3O)ccc2cc1Br ?
0

Test call, this molecule: CCCCCC[C@@H](C)NC(=O)c1ccc(Nc2nc3ccccc3c3occc23)cc1
0

Which outcome was assigned to CCCCCCCCCCCCCC[n+]1ccc(C(N)=O)cc1 in this test?
0

I'd appreciate the recorded outcome for CC([C@H]1CC=C2C3CCC4=C[C@@H](N(C)C)CC[C@]4(C)C3CC[C@@]21C)N(C)C (stereo not given in full) from this test.
0

Returns: the outcome recorded for C=C1C(=O)O[C@H]2[C@H]1CC/C(Cn1cc(-c3ccc(F)cc3)nn1)=C\CC[C@@]1(C)O[C@@H]21 in this assay.
0

Reference for the values: PubChem BioAssay (NCI)
